- TESTED SYSTEM: Adenosine receptors; A2a & A3 (Homo sapiens) (UniProt P0DMS8+P29274)
- ASSAY COMMENT: Selectivity for human adenosine A3 receptor over human adenosine A2A receptor
- Format: protein assay
PARAMETER: Ratio Ki

CONc1nc(C#Cc2ccc(F)cc2)nc2c1ncn2[C@@H]1O[C@H](CO)[C@@H](O)[C@H]1O : 900
CNC(=O)[C@H]1O[C@@H](n2cnc3c(NOC)nc(C#Cc4ccccc4)nc32)[C@H](O)[C@@H]1O : 8600
CCNC(=O)[C@H]1O[C@@H](n2cnc3c(N)nc(C#Cc4ccccc4)nc32)[C@H](O)[C@@H]1O : 100
CONc1nc(C#Cc2ccc(C)cc2)nc2c1ncn2[C@@H]1O[C@H](CO)[C@@H](O)[C@H]1O : 6000
CCNC(=O)[C@H]1O[C@@H](n2cnc3c(NOC)nc(C#Cc4ccc(C)cc4)nc32)[C@H](O)[C@@H]1O : 676

a = CONc1nc(C#Cc2ccc(OC)cc2)nc2c1ncn2[C@@H]1O[C@H](CO)[C@@H](O)[C@H]1O
b = CNC(=O)[C@H]1O[C@@H](n2cnc3c(NOC)nc(C#Cc4ccccn4)nc32)[C@H](O)[C@@H]1O
c = CONc1nc(I)nc2c1ncn2[C@@H]1O[C@H](CO)[C@@H](O)[C@H]1O
Sort by Ratio Ki, descending. Show the ranking through the labels, in the order asked for.
b, c, a
(b: 16400, c: 1700, a: 414)

---

- TESTED SYSTEM: Adenosine receptor A2a (Homo sapiens, UniProt P29274)
- Sequence (P29274 whole entry): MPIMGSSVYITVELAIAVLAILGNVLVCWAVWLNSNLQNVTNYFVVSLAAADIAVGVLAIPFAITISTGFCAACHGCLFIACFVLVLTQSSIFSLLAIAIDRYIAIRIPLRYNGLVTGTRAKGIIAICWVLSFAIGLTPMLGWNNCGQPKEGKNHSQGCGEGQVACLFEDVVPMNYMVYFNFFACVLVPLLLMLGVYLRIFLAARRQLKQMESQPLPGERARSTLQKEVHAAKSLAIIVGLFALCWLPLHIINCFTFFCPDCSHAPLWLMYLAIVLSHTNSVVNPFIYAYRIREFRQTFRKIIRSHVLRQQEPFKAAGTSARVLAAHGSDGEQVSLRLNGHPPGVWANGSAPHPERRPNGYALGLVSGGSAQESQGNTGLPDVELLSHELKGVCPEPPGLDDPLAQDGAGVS
- ASSAY COMMENT: Displacement of [3H]NECA from human recombinant adenosine A2A receptor expressed in CHO cells
- Type: cell-based
PARAMETER: Ki (µM)

As a guide, the following entries are already answered.
CONc1nc(C#Cc2ccc(C(N)=O)cc2)nc2c1ncn2[C@@H]1O[C@H](CO)[C@@H](O)[C@H]1O : 3.13
CONc1nc(C#Cc2ccc(CC#N)cc2)nc2c1ncn2[C@@H]1O[C@H](CO)[C@@H](O)[C@H]1O : 3.08
CNC(=O)[C@H]1O[C@@H](n2cnc3c(NOC)nc(C#Cc4ccc(C)cc4)nc32)[C@H](O)[C@@H]1O : 14.7

I = CONc1nc(C#Cc2ccncc2)nc2c1ncn2[C@@H]1O[C@H](CO)[C@@H](O)[C@H]1O
II = CNC(=O)[C@H]1O[C@@H](n2cnc3c(NOC)nc(C#Cc4ccccc4)nc32)[C@H](O)[C@@H]1O
Lab note: check whether I or II shows the higher recorded Ki. Record your answer as the label of the chosen record.
II
(II: 16.3 µM, I: 6.31 µM)

---

- TESTED SYSTEM: UniProt:P30542
- ASSAY COMMENT: Displacement of [3H]CCPA from human recombinant adenosine A1 receptor expressed in CHO cells
PARAMETER: Ki (nM)

As a guide, the following entries are already answered.
C#Cc1nc(NOC)c2ncn([C@@H]3O[C@H](CO)[C@@H](O)[C@H]3O)c2n1 : 25
CCCCCc1ccc(C#Cc2nc(NOC)c3ncn([C@@H]4O[C@H](C(=O)NC)[C@@H](O)[C@H]4O)c3n2)cc1 : 48100
CNC(=O)[C@H]1O[C@@H](n2cnc3c(NOC)nc(C#Cc4ccc(C(C)=O)cc4)nc32)[C@H](O)[C@@H]1O : 53800
CCCCC#Cc1nc(NOC)c2ncn([C@@H]3O[C@H](CO)[C@@H](O)[C@H]3O)c2n1 : 97
CCNC(=O)[C@H]1O[C@@H](n2cnc3c(NOC)nc(C#Cc4ccc(F)cc4)nc32)[C@H](O)[C@@H]1O : 1880
CCNC(=O)[C@H]1O[C@@H](n2cnc3c(NOC)nc(C#Cc4ccc(C(C)=O)cc4)nc32)[C@H](O)[C@@H]1O : 1230
CONc1nc(C#Cc2ccc(CC#N)cc2)nc2c1ncn2[C@@H]1O[C@H](CO)[C@@H](O)[C@H]1O : 766
CCNC(=O)[C@H]1O[C@@H](n2cnc3c(NOC)nc(I)nc32)[C@H](O)[C@@H]1O : 53
CONc1nc(C#Cc2ccc(C(N)=O)cc2)nc2c1ncn2[C@@H]1O[C@H](CO)[C@@H](O)[C@H]1O : 901
CONc1nc(C#Cc2ccc(C)cc2)nc2c1ncn2[C@@H]1O[C@H](CO)[C@@H](O)[C@H]1O : 1380

A = CCCCCc1ccc(C#Cc2nc(NOC)c3ncn([C@@H]4O[C@H](C(=O)NCC)[C@@H](O)[C@H]4O)c3n2)cc1
B = CONc1nc(I)nc2c1ncn2[C@@H]1O[C@H](CO)[C@@H](O)[C@H]1O
C = CONc1nc(C#Cc2cccnc2)nc2c1ncn2[C@@H]1O[C@H](CO)[C@@H](O)[C@H]1O
D = CCCCCc1ccc(C#Cc2nc(NOC)c3ncn([C@@H]4O[C@H](CO)[C@@H](O)[C@H]4O)c3n2)cc1
Sort by Ki, descending. Show the ranking through the labels, in the order asked for.
A, D, C, B

---

- TESTED SYSTEM: Adenosine receptor A1 (Homo sapiens)
- ASSAY COMMENT: Displacement of [3H]CCPA from human recombinant adenosine A1 receptor expressed in CHO cells
pKi: −log10 of the molar value.
PARAMETER: pKi

CNC(=O)[C@H]1O[C@@H](n2cnc3c(NOC)nc(I)nc32)[C@H](O)[C@@H]1O : 6.82
CONc1nc(C#Cc2cccc(C(F)(F)F)c2)nc2c1ncn2[C@@H]1O[C@H](CO)[C@@H](O)[C@H]1O : 5.61
CONc1nc(C#Cc2ccccn2)nc2c1ncn2[C@@H]1O[C@H](CO)[C@@H](O)[C@H]1O : 6.36
CONc1nc(C#Cc2ccccc2)nc2c1ncn2[C@@H]1O[C@@H](CO)[C@@H](O)[C@H]1O : 5.92
CONc1nc(C#Cc2ccncc2)nc2c1ncn2[C@@H]1O[C@H](CO)[C@@H](O)[C@H]1O : 5.92

A = CONc1nc(C#Cc2ccc(C(C)=O)cc2)nc2c1ncn2[C@@H]1O[C@H](CO)[C@@H](O)[C@H]1O
B = CNC(=O)[C@H]1O[C@@H](n2cnc3c(NOC)nc(C#Cc4ccccn4)nc32)[C@H](O)[C@@H]1O
C = CONc1nc(C#CCCCC#N)nc2c1ncn2[C@@H]1O[C@H](CO)[C@@H](O)[C@H]1O
Sort by pKi, descending. Show the ranking through the labels, in the order asked for.
C, A, B

---

- TESTED SYSTEM: Adenosine receptors; A2a & A3 (Homo sapiens) (UniProt P0DMS8+P29274)
- ASSAY COMMENT: Selectivity for human adenosine A3 receptor over human adenosine A2A receptor
- Type: protein assay
PARAMETER: Ratio Ki

CONc1nc(C#Cc2ccc(C(C)=O)cc2)nc2c1ncn2[C@@H]1O[C@H](CO)[C@@H](O)[C@H]1O : 893

a = CONc1nc(C#C[Si](C)(C)C)nc2c1ncn2[C@@H]1O[C@H](CO)[C@@H](O)[C@H]1O
b = CCNC(=O)[C@H]1O[C@@H](n2cnc3c(NOC)nc(I)nc32)[C@H](O)[C@@H]1O
Of a versus b , which is the one with smaller reported Ratio Ki? Record your answer as the label of the chosen record.
a
(a: 441, b: 1900)

---

- TESTED SYSTEM: Adenosine receptor A1 (Homo sapiens, UniProt P30542)
- Sequence (P30542 whole entry): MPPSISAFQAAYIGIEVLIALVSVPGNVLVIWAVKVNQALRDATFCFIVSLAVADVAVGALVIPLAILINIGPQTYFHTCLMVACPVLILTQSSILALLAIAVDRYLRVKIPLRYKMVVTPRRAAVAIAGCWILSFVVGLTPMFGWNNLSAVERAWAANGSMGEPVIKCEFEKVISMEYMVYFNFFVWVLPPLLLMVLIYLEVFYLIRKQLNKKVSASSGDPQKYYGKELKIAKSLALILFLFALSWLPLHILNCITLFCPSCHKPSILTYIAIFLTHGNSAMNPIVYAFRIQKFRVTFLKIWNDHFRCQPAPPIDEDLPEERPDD
- ASSAY COMMENT: Displacement of [3H]CCPA from human recombinant adenosine A1 receptor expressed in CHO cells
pKi: −log10 of the molar value.
PARAMETER: pKi

CONc1nc(C#Cc2ccc(OC)cc2)nc2c1ncn2[C@@H]1O[C@H](CO)[C@@H](O)[C@H]1O : 5.73

a = CNC(=O)[C@H]1O[C@@H](n2cnc3c(NOC)nc(C#Cc4ccc(F)cc4)nc32)[C@H](O)[C@@H]1O
b = CNC(=O)[C@H]1O[C@@H](n2cnc3c(NOC)nc(C#Cc4ccccc4)nc32)[C@H](O)[C@@H]1O
Of a versus b , which is the one with smaller reported pKi? Record your answer as the label of the chosen record.
b

Provenance of the data: ChEMBL document CHEMBL1142938
